Source: patent US10774051B2

Catalogue of pIC50 readings, one per entry.
# test.system: human P2X7 receptor (Homo sapiens, UniProt Q99572, R270H/Y155H)
# assay.comment: Evaluation of human P2X7 receptor inhibitory activity (Yo-Pro uptake, BzATP stimulation, FLIPR TETRA)
# Format: cell-based
# measurement.conditions: antagonistic activity for the human P2X7 receptor; read-out: IC50
pIC50: −log10 of the molar value.

# annotated cases, reported pIC50 shown
{"smiles.code": "COc1ccc(Nc2nc(=O)c(F)cn2Cc2cc(F)cc(F)c2)c(C)n1", "pIC50": "7.00 to 8.00"}
{"smiles.code": "COc1cccc(Nc2nc(=O)c(OC)cn2Cc2ccc(F)c(Cl)c2)c1Cl", "pIC50": "> 8.00"}
{"smiles.code": "CCOc1ccc(C)c(Nc2nc(=O)c(F)cn2Cc2ccc(F)c(Cl)c2)c1", "pIC50": "> 8.00"}

// below: pIC50 requested for another compound
Requested read-out: pIC50. Entry: "CCOc1ccc(C)c(Nc2nc(=O)c(F)cn2Cc2cc(F)c(F)c(F)c2)c1"
> 8.00

* * *

# test.system: human P2X7 receptor (Homo sapiens, UniProt Q99572, R270H/Y155H)
# assay.comment: Evaluation of human P2X7 receptor inhibitory activity (Yo-Pro uptake, BzATP stimulation, FLIPR TETRA)
# Type: cell-based
# measurement.conditions: 1321N1 cells stably expressing human P2X7 receptor; BzATP stimulation, Yo-Pro uptake; read-out: IC50 (antagonistic activity for the human P2X7 receptor), class symbol
pIC50: −log10 of the molar value.
observation.type: pIC50

# annotated cases, reported pIC50 shown
{"compound": "COc1cn(Cc2ccc(F)cc2)c(Nc2cc(C)c(C)cc2C)nc1=O [Compound I-0162]", "observation.type": "pIC50", "observed.measurement": "> 8.00"}
{"compound": "COc1cn(Cc2ccccc2)c(Nc2cc(-n3c(C)ccc3C)ccc2C)nc1=O [Compound I-0525]", "observation.type": "pIC50", "observed.measurement": "6.30 to 7.00"}

Requested read-out: pIC50. Entry: CCc1cc(OC)c(OC)cc1Nc1nc(=O)c(OC)cn1Cc1ccc(F)c(F)c1 [Compound I-0272]
> 8.00

Requested read-out: pIC50. Entry: COc1cn(Cc2ccc(C)cc2)c(Nc2cccc(Cl)c2C)nc1=O [Compound I-0045]
6.00 to 6.30

* * *

Catalogue of IC50 readings, one per entry.
# test.system: human P2X7 receptor (Homo sapiens, UniProt Q99572, R270H/Y155H)
# assay.comment: Evaluation of human P2X7 receptor inhibitory activity (Yo-Pro uptake, BzATP stimulation, FLIPR TETRA)
# Format: cell-based
# measurement.conditions: antagonistic activity for the human P2X7 receptor; read-out: IC50

# annotated cases, reported IC50 shown
{"smiles.code": "COc1cn(Cc2cc(F)cc(F)c2)c(Nc2cccc3[nH]c(C)cc23)nc1=O", "test.system": "human P2X7 receptor (Homo sapiens, UniProt Q99572, R270H/Y155H)", "IC50": "0.01 to 0.1 µM"}
{"smiles.code": "COc1cn(Cc2cc(F)cc(F)c2)c(Nc2cc(C)c(OCC(F)(F)F)cc2C)nc1=O", "test.system": "human P2X7 receptor (Homo sapiens, UniProt Q99572, R270H/Y155H)", "IC50": "0.01 to 0.1 µM"}
{"smiles.code": "COc1cn(Cc2cc(F)cc(Cl)c2)c(Nc2ccc(OC(F)(F)F)cc2C)nc1=O", "test.system": "human P2X7 receptor (Homo sapiens, UniProt Q99572, R270H/Y155H)", "IC50": "0.1 to 0.5 µM"}

Requested read-out: IC50. Entry: "COc1cn(Cc2ccc(F)c(Cl)c2)c(Nc2cc(Oc3ccccn3)ccc2C)nc1=O"
< 0.01 µM

Requested read-out: IC50. Entry: "COc1cn(Cc2cc(F)c(F)c(F)c2)c(Nc2cc(OC(F)F)c(C)cc2C)nc1=O"
< 0.01 µM

Requested read-out: IC50. Entry: "COc1cn(Cc2cc(F)c(F)c(F)c2)c(Nc2cc(C)c(OC(F)(F)F)cc2C)nc1=O"
0.01 to 0.1 µM

Requested read-out: IC50. Entry: "COc1ccc(Nc2nc(=O)c(C(=O)O)cn2Cc2cc(F)c(F)c(F)c2)c(C)c1"
0.01 to 0.1 µM

Requested read-out: IC50. Entry: "CCc1cc(Br)ccc1Nc1nc(=O)c(OC)cn1Cc1cc(F)cc(Cl)c1"
0.01 to 0.1 µM

Requested read-out: IC50. Entry: "COc1cnc(Nc2cccc(Cl)c2C)n(Cc2cccc(Cl)c2)c1=O"
0.5 to 1 µM

Requested read-out: IC50. Entry: "C=C(C)c1ccc(C)c(Nc2nc(=O)c(OC)cn2Cc2ccccc2)c1"
0.01 to 0.1 µM

Requested read-out: IC50. Entry: "Cc1ccc(-c2ncco2)cc1Nc1nc(=O)c(Cl)cn1Cc1cc(F)cc(F)c1"
< 0.01 µM

Requested read-out: IC50. Entry: "COc1cc(C)c(Nc2nc(=O)c(F)cn2Cc2cc(F)c(F)c(F)c2)cc1Cl"
< 0.01 µM

Requested read-out: IC50. Entry: "COc1ccc(Nc2nc(=O)c(Cl)cn2Cc2ccc(F)c(F)c2)c(C)c1"
< 0.01 µM

Requested read-out: IC50. Entry: "COc1cn(Cc2cc(F)cc(F)c2)c(Nc2cc(OC3CC3)ccc2C)nc1=O"
0.01 to 0.1 µM

Requested read-out: IC50. Entry: "Cc1cc2c(cc1Nc1nc(=O)c(F)cn1Cc1cc(F)c(F)c(F)c1)CCO2"
< 0.01 µM

Requested read-out: IC50. Entry: "COc1cn(Cc2cc(F)cc(Cl)c2)c(Nc2cc3c(cc2C)OCCO3)nc1=O"
0.01 to 0.1 µM

Requested read-out: IC50. Entry: "Cc1cc(OC(F)F)ccc1Nc1nc(=O)c(F)cn1Cc1cc(F)cc(F)c1"
0.01 to 0.1 µM
